Target: glutathione S-transferase (GST)-fused full-length human Syk protein (Homo sapiens)
Construct: (GST)-fused full-length human Syk protein; GST (glutathione S-transferase); purchased Carna Biosciences
Assay: Syk enzyme assay
Type: biochemical
Details: Syk enzyme assay, Test Example 1; read-out: IC50 of Syk-inhibitory activity
pIC50: −log10 of the molar value.
reported-endpoint: pIC50

Missing value: pIC50, glutathione S-transferase (GST)-fused full-length human Syk protein (Homo sapiens), entry CCC[C@@H](Nc1nc(Nc2cnc(C)c(-n3nccn3)c2)c(C(N)=O)cc1F)[C@@H](N)CC . Fill in?
7.30 to 8.00

Missing value: pIC50, glutathione S-transferase (GST)-fused full-length human Syk protein (Homo sapiens), entry CC[C@@H](Nc1nc(Nc2ccc3c(cnn3CCF)c2)c(C(N)=O)cc1F)[C@H](C)N . Fill in?
> 8.00

Missing value: pIC50, glutathione S-transferase (GST)-fused full-length human Syk protein (Homo sapiens), entry Cc1ccccc1Nc1nc(NCCN)c(F)cc1C(N)=O . Fill in?
6.00 to 7.00

Missing value: pIC50, glutathione S-transferase (GST)-fused full-length human Syk protein (Homo sapiens), entry CC(C)C[C@H](CN)Nc1nc(Nc2cncc3ccccc23)c(C(N)=O)cc1F . Fill in?
> 8.00

Missing value: pIC50, glutathione S-transferase (GST)-fused full-length human Syk protein (Homo sapiens), entry Cn1ccc2c(Nc3nc(N[C@@H]4CCCC[C@@H]4N)c(F)cc3C(N)=O)cccc21 (relative stereo) . Fill in?
> 8.00

Missing value: pIC50, glutathione S-transferase (GST)-fused full-length human Syk protein (Homo sapiens), entry NC(=O)c1cc(F)c(N[C@@H]2CCCC[C@@H]2N)nc1Nc1cncc(-c2cccs2)c1 (relative stereo) . Fill in?
> 8.00

Missing value: pIC50, glutathione S-transferase (GST)-fused full-length human Syk protein (Homo sapiens), entry Cc1ccc(Nc2nc(N[C@@H]3CCCC[C@@H]3N)c(F)cc2C(N)=O)cn1 [Example 006-104] . Fill in?
> 8.00

Missing value: pIC50, glutathione S-transferase (GST)-fused full-length human Syk protein (Homo sapiens), entry CC(C)(CN)Nc1nc(Nc2ccc3ncccc3c2)c(C(N)=O)cc1F . Fill in?
7.00 to 7.30

Missing value: pIC50, glutathione S-transferase (GST)-fused full-length human Syk protein (Homo sapiens), entry C[C@H](N)[C@@H](CC1CC1)Nc1nc(Nc2cncc(-n3nccn3)c2)c(C(N)=O)cc1F . Fill in?
> 8.00

* * *

Biological target: glutathione S-transferase (GST)-fused full-length human Syk protein (Homo sapiens)
Construct: (GST)-fused full-length human Syk protein; GST (glutathione S-transferase); purchased Carna Biosciences
Experiment: Syk enzyme assay
Type: biochemical
Conditions: Syk enzyme assay, Test Example 1; read-out: IC50 of Syk-inhibitory activity
reported-endpoint: IC50

Which measured IC50 value corresponds to CNc1cc(Nc2nc(NC3CCCCC3N)c(F)cc2C(N)=O)ccn1 (stereo not drawn) ?
< 10 nM

Which measured IC50 value corresponds to COCc1cc(Nc2nc(N[C@@H]3CCCC[C@@H]3N)c(F)cc2C(N)=O)ccn1 (relative stereo) ?
10 to 50 nM

Which measured IC50 value corresponds to CCc1nn(CC)c2ccc(Nc3nc(N[C@H](CC(C)C)[C@H](C)N)c(F)cc3C(N)=O)cc12 ?
< 10 nM

Which measured IC50 value corresponds to CC[C@@H](Nc1nc(Nc2ccc3ncccc3c2)c(C(N)=O)cc1F)[C@H](C)N ?
< 10 nM

Which measured IC50 value corresponds to NC(=O)c1cc(F)c(N[C@@H]2CCCC[C@@H]2N)nc1Nc1cnc2c(NC(=O)c3ccccn3)cccc2c1 (relative stereo) ?
< 10 nM

Which measured IC50 value corresponds to CCC[C@@H](Nc1nc(Nc2cncc(-c3ccccc3)c2)c(C(N)=O)cc1F)[C@H](C)N ?
< 10 nM

Which measured IC50 value corresponds to CC[C@@H](Nc1nc(Nc2ccc3c(cnn3C)c2)c(C(N)=O)cc1F)[C@H](C)N ?
< 10 nM

Which measured IC50 value corresponds to COc1cc(Nc2nc(N[C@H](CC3CC3)[C@H](C)N)c(F)cc2C(N)=O)ccn1 ?
< 10 nM

Which measured IC50 value corresponds to NC(=O)c1cc(F)c(NC2CCCCC2N)nc1Nc1cccc2c1cnn2CCN1CCOCC1 (stereo not drawn) ?
< 10 nM

Which measured IC50 value corresponds to CCC[C@@H](Nc1nc(Nc2cncc3ccccc23)c(C(N)=O)cc1F)[C@H](C)N ?
< 10 nM

Which measured IC50 value corresponds to NC(=O)c1cc(F)c(NC2CCCCC2N)nc1Nc1cncc(-c2ccc3c(c2)OCO3)c1 (stereo not drawn) ?
< 10 nM

Which measured IC50 value corresponds to CCc1nn(CCF)c2ccc(Nc3nc(N[C@@H]4CCCC[C@@H]4N)c(F)cc3C(N)=O)cc12 ?
< 10 nM

Which measured IC50 value corresponds to Cc1ncc(Nc2nc(NC3CCCCC3N)c(F)cc2C(N)=O)cc1C1CC1 (stereo not drawn) ?
10 to 50 nM

Which measured IC50 value corresponds to NC(=O)c1cc(F)c(N[C@H](Cc2ccccc2)C(N)=O)nc1Nc1ccnc2c1ccn2CCN1CCOCC1 ?
10 to 50 nM

Which measured IC50 value corresponds to COc1ccc(F)c(-c2cncc(Nc3nc(N[C@@H]4CCCC[C@@H]4N)c(F)cc3C(N)=O)c2)c1 (relative stereo) ?
< 10 nM

Which measured IC50 value corresponds to NC(=O)c1cc(F)c(N[C@@H]2CCCC[C@@H]2N)nc1Nc1ccnc(CO)c1 (relative stereo) ?
10 to 50 nM

Which measured IC50 value corresponds to CCc1nc2ccc(Nc3nc(NC4CCCCC4N)c(F)cc3C(N)=O)cc2nc1CC (stereo not drawn) ?
< 10 nM

Which measured IC50 value corresponds to NC(=O)c1cc(F)c(NC2CCCCC2N)nc1Nc1cncc(NC(=O)c2ccncc2)c1 (stereo not drawn) ?
10 to 50 nM
